# System: MDA-MB-436
# TEST_DESCRIPTION: normalised viability (% of control), CellTiter-Blue; higher = more viable cells (100 = DMSO, 0 = benzethonium chloride kill control)
# RUN_CONDITIONS: incubation time: 72 h
normalised viability values for the compounds below.

| COMPOUND | normalised viability / % |
| --- | --- |
| C=CCn1c(=O)c2cnc(Nc3ccc(N4CCN(C)CC4)cc3)nc2n1-c1cccc(C(C)(C)O)n1 [MK1775] (1 nM) | 97.9 |
| CO[C@@H]1[C@H](N(C)C(=O)c2ccccc2)C[C@H]2O[C@]1(C)n1c3ccccc3c3c4c(c5c6ccccc6n2c5c31)C(=O)NC4 [Midostaurin] (1 nM) | 98.2 |
| Cn1cc(C2=C(c3cn(C4CCN(Cc5ccccn5)CC4)c4ccccc34)C(=O)NC2=O)c2ccccc21 [Enzastaurin] (1 nM) | 130 |
| Cc1cc(Nc2nc(N[C@@H](C)c3ncc(F)cn3)ncc2Cl)[nH]n1 [AZD1480] (0.1 nM) | 114 |
| CCN(CC)CCCC(C)Nc1ccnc2cc(Cl)ccc12 (configuration not stated) [Chloroquine] (0.099 nM) | 111 |
| COc1cc(Nc2c(C#N)cnc3cc(OCCCN4CCN(C)CC4)c(OC)cc23)c(Cl)cc1Cl [Bosutinib] (1 nM) | 113 |
| CN(Cc1cnc2nc(N)nc(N)c2n1)c1ccc(C(=O)N[C@@H](CCC(=O)O)C(=O)O)cc1 [Methotrexate] (1 nM) | 109 |

* * *

# Tested on: CAL-148
# TEST_DESCRIPTION: normalised response (% of control), CellTiter-Glo; higher = more viable cells (100 = DMSO, 0 = benzethonium chloride kill control)
# RUN_CONDITIONS: incubation time: 72 h

| COMPOUND | normalised response, % |
| --- | --- |
| Cc1cn(-c2cc(NC(=O)c3ccc(C)c(Nc4nccc(-c5cccnc5)n4)c3)cc(C(F)(F)F)c2)cn1 [Nilotinib] (10000 nM) | 98 |
| Cc1cc(Nc2nc(N[C@@H](C)c3ncc(F)cn3)ncc2Cl)[nH]n1 [AZD1480] (1000 nM) | 87.3 |
| C/C(=C\c1csc(C)n1)[C@@H]1C[C@@H]2O[C@]2(C)CCC[C@H](C)[C@H](O)[C@@H](C)C(=O)C(C)(C)[C@@H](O)CC(=O)N1 [Ixabepilone] (1000 nM) | 107 |

* * *

# Test system: HCC1143
# TEST_DESCRIPTION: normalised viability (% of control), CellTiter-Blue; higher = more viable cells (about 100 = DMSO control)
# RUN_CONDITIONS: 100 nM; incubation time: 72 h
normalised viability values for the compounds below.

| COMPOUND | normalised viability (%) |
| --- | --- |
| Cc1cc(Nc2nc(N[C@@H](C)c3ncc(F)cn3)ncc2Cl)[nH]n1 | 102 |
| C/C(=C\c1csc(C)n1)[C@@H]1C[C@@H]2O[C@]2(C)CCC[C@H](C)[C@H](O)[C@@H](C)C(=O)C(C)(C)[C@@H](O)CC(=O)N1 [Ixabepilone] | 80.7 |
| Nc1ccn([C@@H]2O[C@H](CO)[C@@H](O)C2(F)F)c(=O)n1 | 49.7 |
| CC(=O)[C@]1(O)Cc2c(O)c3c(c(O)c2[C@@H](O[C@H]2C[C@H](N)[C@H](O)[C@H](C)O2)C1)C(=O)c1ccccc1C3=O | 61 |
